The reported measurements were obtained from ChEMBL document CHEMBL1157539.

- Tested on: Plasmodium falciparum
- assay.info: GSK_TCMDC: Inhibition of Plasmodium falciparum Dd2 in whole red blood cells, using parasite LDH activity as an index of growth. Test compounds present at 2uM
- Type: functional
observation.type: Inhibition
Quick note: unit goes after the number.

Field Inhibition (Plasmodium falciparum), entry CCCC(CNCc1cccc(C)c1)CNc1cc(=O)c2ccccc2[nH]1 (stereo not given) : 89%

Field Inhibition (Plasmodium falciparum), entry "CCC(=O)c1cc(C(=O)NCCc2cccc(OC)c2)ccc1OC" : 12%

Field Inhibition (Plasmodium falciparum), entry O=C(O)c1ccc(-c2cnc3ccc(NC4CCC(O)CC4)nn23)cc1 (stereo not given) : 90%

Field Inhibition (Plasmodium falciparum), entry "CCOC(=O)c1cc(C(=O)NCCCCN2CCC(c3ccc(CC)cc3OCC)CC2)ccc1-c1ccc(C(F)(F)F)cc1" : 71%

Field Inhibition (Plasmodium falciparum), entry "COc1cc2c(cc1S(=O)(=O)c1ccc(NC(=O)Nc3ccc(F)cc3)cc1)CCN(C)CC2.Cl" : 55%

---

- Test system: Plasmodium falciparum
- assay.info: GSK_TCMDC: Inhibition of Plasmodium falciparum Dd2 in whole red blood cells, using parasite LDH activity as an index of growth. Test compounds present at 2uM
- Format: functional
observation.type: Inhibition (%)
# output: bare number, implied unit %

Quick note, Inhibition for "CC(C)N1CCC(N(Cc2ccc(-c3ccc(C(F)(F)F)cc3)cc2)C(=O)Cn2c(CCc3cccc(F)c3F)cc(=O)c3ccccc32)CC1.O=C(O)C(O)C(O)C(=O)O" landed at 73

Quick note, Inhibition for CCCCC([C@@H](Cc1ccc2ccccc2c1)C(=O)N[C@H](C(=O)NC)C(C)(C)C)N(O)C=O (stereo partly drawn) landed at 97

Quick note, Inhibition for "O=C(O)C(F)(F)F.OCCN1CCN(Cc2ccc(-c3ccc(-c4nc5cc(F)ccc5[nH]4)cc3)cc2)CC1" landed at 99

Quick note, Inhibition for "O=C(C=Cc1ccc(Cl)c(Cl)c1)NCCCCCN1CCC(CCCNS(=O)(=O)c2ccc(Br)cc2)CC1" landed at 25

Quick note, Inhibition for "Cc1cc(=NN=Cc2ccc(Cl)cc2)c2cc(F)ccc2[nH]1" landed at 98

Quick note, Inhibition for "O=c1cc(NCCCNCc2ccc(C(F)(F)F)c(F)c2)[nH]c2ccccc12" landed at 26

Quick note, Inhibition for "Cc1cc(N2CCCC2)nc(Nc2ccc(NC(=O)CC(C)C)cc2)n1" landed at 53

Quick note, Inhibition for "CCCCCc1cc(OCCN(C)C)cc2c1C(=O)CC(C)(C)O2.Cl" landed at 0

Quick note, Inhibition for "C=CCn1c(Sc2ccc(C#N)c([N+](=O)[O-])c2)nnc1-c1ccc(OC)cc1" landed at 74

Quick note, Inhibition for COc1ccc(S(=O)(=O)NC2CCN(CCNC(=O)Nc3cc(C)nc4ccccc34)C2)cc1 (stereo not drawn) landed at 41

Quick note, Inhibition for "COc1cc(NCCCNC(=O)c2ccc(Cl)c(Cl)c2)nc2ccccc12" landed at 100

Quick note, Inhibition for "O=c1cc(NCCCNCc2cccc(SC(F)(F)F)c2)[nH]c2ccccc12" landed at 94

Quick note, Inhibition for "O=c1nc(C=Cc2ccc(Br)cc2)oc2ccccc12" landed at 66

Quick note, Inhibition for "COc1cc2nc(N3CCC(CNC(=O)c4cccc5cccnc45)CC3)nc(N)c2cc1OC" landed at 33

Quick note, Inhibition for "CC(C)(C)c1cc(NC(=O)c2ccc(Cl)c([N+](=O)[O-])c2)cc(C(C)(C)C)c1" landed at 7

Quick note, Inhibition for "CCCCCCCN(Cc1ccc(OC(C)(C)C(=O)OCC)cc1)C(=O)Nc1ccccc1OC(F)(F)F" landed at 68

Quick note, Inhibition for "CCN(CC)CCN(Cc1ccc(-c2ccc(C(F)(F)F)cc2)cc1)C(=O)Cn1c(CCc2cccc(F)c2F)nc(=O)c2cc(C)ccc21.O=C(O)C(O)C(O)C(=O)O" landed at 43

Quick note, Inhibition for "CC(=O)Nc1nc(C(=O)Nc2ccc(-c3cccc(-c4nc5cc(C(F)(F)F)ccc5[nH]4)c3)cc2)cs1" landed at 97
